# PROTOCOL_TEXT: physchem
# ASSAY_CONDITIONS: pH 7.4, LogD7.4, pH 7.4
READOUT_TYPE: logD
Give bare numbers.

Give its logD value. Item: CN1CCN(c2ccc(Nc3nccc(-c4ccncc4)n3)cc2C(F)(F)F)CC1 [Compound 5] 3.57

The reported measurements were obtained from paper PMC8757511.
